Exercise: for every item that follows, state its recorded EC50.
Molecular target: T1, human TNFR1 (human, UniProt P19438)
T1 chain: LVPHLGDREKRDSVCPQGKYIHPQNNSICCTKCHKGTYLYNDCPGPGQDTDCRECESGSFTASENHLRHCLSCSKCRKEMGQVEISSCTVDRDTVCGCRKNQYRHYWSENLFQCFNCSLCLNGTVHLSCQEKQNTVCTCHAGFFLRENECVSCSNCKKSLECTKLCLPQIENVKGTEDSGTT
Assay: ELISA
Give a bare numeral; the unit nM is implied.

Give the measured EC50 of DOM1H-131-206 P14K (antibody, V domains shown) VH: EVQLLESGGGLVQKGGSLRLSCAASGFTFAHETMVWVRQAPGKGLEWVSHIPPDGQDPFYADSVKGRFTISRDNSKNTLYLQMNSLRAEDTAVYHCALLPKRGPWFDYWGQGTLVTVSS .
0.72

Need EC50, item DOM1H-131-206 P14Q (antibody, V domains shown) VH: EVQLLESGGGLVQQGGSLRLSCAASGFTFAHETMVWVRQAPGKGLEWVSHIPPDGQDPFYADSVKGRFTISRDNSKNTLYLQMNSLRAEDTAVYHCALLPKRGPWFDYWGQGTLVTVSS
0.91

Which EC50 value is on record for DOM1H-131-206 P14T + C-terminal A (antibody, V domains shown) VH: EVQLLESGGGLVQTGGSLRLSCAASGFTFAHETMVWVRQAPGKGLEWVSHIPPDGQDPFYADSVKGRFTISRDNSKNTLYLQMNSLRAEDTAVYHCALLPKRGPWFDYWGQGTLVTVSS ?
0.66

What value of EC50 has been recorded for this entry: DOM1H-131-206 L11A (antibody, V domains shown) VH: EVQLLESGGGAVQPGGSLRLSCAASGFTFAHETMVWVRQAPGKGLEWVSHIPPDGQDPFYADSVKGRFTISRDNSKNTLYLQMNSLRAEDTAVYHCALLPKRGPWFDYWGQGTLVTVSS
0.51
